# study target: Alpha-bungarotoxin (Bungarus multicinctus) (UniProt P60615)
# Sequence (P60615 whole entry, looked up): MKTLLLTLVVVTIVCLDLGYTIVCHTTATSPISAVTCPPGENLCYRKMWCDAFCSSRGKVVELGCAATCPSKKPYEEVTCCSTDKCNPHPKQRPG
# method: alpha-bungarotoxin binders on microarray, profiling panel, artefact control for SMM control protein annotation, biochemical, small-molecule microarray, Alexa647 label, 635/667 nm fluorescence (AID 1117)
# condition parameters: alpha-BTX-A647 binding fluorescence, higher = more signal
recorded endpoint: composite z-score

INSERT INTO measurements (test_smiles, study_target, recorded_endpoint, meas_value) VALUES
  ('COC(=O)Cn1c(C(=O)N2CCCC2)cc2c1C[C@H]1CN(C(=O)c3ccccc3)[C@@](Cc3ccccc3)(C(=O)OC)[C@@H]21', 'Alpha-bungarotoxin (Bungarus multicinctus) (UniProt P60615)', 'composite z-score', 0.236),
  ('CC(C)[Si]1(C(C)C)O[C@@H](c2ccccc2)c2cc(C3CC3)nc(-c3ccc(Oc4ccccc4)cc3)c21', 'Alpha-bungarotoxin (Bungarus multicinctus) (UniProt P60615)', 'composite z-score', -0.789),
  ('COc1cccc([C@H]2N[C@H](C(=O)O)CC[C@@H]2C)c1', 'Alpha-bungarotoxin (Bungarus multicinctus) (UniProt P60615)', 'composite z-score', 0.396),
  ('O=C1O[C@@H](c2ccccc2)[C@@H](c2ccccc2)N2[C@@H](c3ccccc3OCCO)[C@]3(C(=O)Nc4ccc(C#CC5=CCCCC5)cc43)[C@@H](C(=O)O)[C@H]12', 'Alpha-bungarotoxin (Bungarus multicinctus) (UniProt P60615)', 'composite z-score', 1.77),
  ('CC(C)C[C@@H]1NC(=O)[C@H]2C[C@@H](C(=O)NCCCCCC[N+](C)(C)C)[C@@H](c3ccc(O)cc3)N2C1=O', 'Alpha-bungarotoxin (Bungarus multicinctus) (UniProt P60615)', 'composite z-score', -0.111),
  ('CO[C@@H]1COC(=O)CC=C[C@@H](C)[C@H](OC)COC(=O)CC=C[C@H]1C', 'Alpha-bungarotoxin (Bungarus multicinctus) (UniProt P60615)', 'composite z-score', -0.587),
  ('CCC(=O)[C@]12O[C@@]3([C@@H]4C(=O)OCC[C@@H]41)N(CC)C(C)=C(C(=O)OC)[C@@H](c1ccccc1)N3C2=O', 'Alpha-bungarotoxin (Bungarus multicinctus) (UniProt P60615)', 'composite z-score', 0.175);
